From: patent US20240376097A1

# measured.on: Recombinant human Bcl-2 protein (Homo sapiens (Human))
# Sequence (P10415 whole entry): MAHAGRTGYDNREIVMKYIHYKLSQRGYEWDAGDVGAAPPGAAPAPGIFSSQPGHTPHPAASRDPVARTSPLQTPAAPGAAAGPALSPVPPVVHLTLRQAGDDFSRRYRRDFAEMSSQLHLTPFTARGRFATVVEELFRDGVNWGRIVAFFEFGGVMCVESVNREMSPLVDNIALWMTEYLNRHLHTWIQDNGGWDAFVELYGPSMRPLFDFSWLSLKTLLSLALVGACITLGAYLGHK
# test.method.notes: Bcl-2 TR-FRET Assay
# Type: binding
# test.settings: Bcl-2 wild type, TR-FRET; read-out: Biochemical assay (IC50, nM) Bcl-2 WT
# Method: Biological Example: Bcl-2 TR-FRET Assay Compounds disclosed herein were tested for blocking of Bcl-2 protein with its ligand in an assay based on Time-Resolved Fluorescence Resonance Energy Transfer (TR-FRET) methodology. […] The TR-FRET signals (337 nm-520 nm-490 nm) were read on BMG PHERAstar FSX instrument. The inhibition percentage of Bcl-2 interaction with its ligand in presence of increasing concentrations of compounds was calculated based on the TR-FRET signals. […]
property: log10(IC50) (log10 of the value in nM)
Quick note: numbers are log10 of IC50, with nM as the unit.

molecule	number
COc1ccc(CN2CCN(C3CC4(C3)CN(c3ccc(C(=O)NS(=O)(=O)c5ccc(NC[C@H]6CC[C@](C)(O)CC6)c([N+](=O)[O-])c5)c(Oc5cnc6[nH]cc(F)c6c5)c3)C4)[C@@H](c3ccccc3C(C)C)C2)cc1OC [Example 141b]	-1.23
CC(C)c1ccccc1[C@@H]1CN(Cc2ccnc3c2OC(C)(C)CO3)CCN1C1CC2(C1)CN(c1ccc(C(=O)NS(=O)(=O)c3ccc(NC[C@H]4CC[C@](C)(O)CC4)c([N+](=O)[O-])c3)c(Oc3cnc4[nH]cc(F)c4c3)c1)C2	-1.32
CC(C)c1ccccc1[C@@H]1CN(Cc2ccc3c(c2)OCC3(C)C)CCN1C1CC2(CCN(c3ccc(C(=O)NS(=O)(=O)c4ccc(NC[C@H]5CC[C@](C)(O)CC5)c([N+](=O)[O-])c4)c(Oc4cnc5[nH]cc(F)c5c4)c3)CC2)C1	-0.17
[2H]C([2H])([2H])Oc1cc(CN2CCN(C3CC4(C3)CN(c3ccc(C(=O)NS(=O)(=O)c5ccc(NC[C@H]6CC[C@](C)(O)CC6)c([N+](=O)[O-])c5)c(Oc5cnc6[nH]ccc6c5)c3)C4)[C@H](c3ccccc3C(C)C)C2)cc2c1OCC2(C)C	-0.80
COc1cc(CN2CCN(C3CC4(C3)CN(c3ccc(C(=O)NS(=O)(=O)c5ccc(NC[C@H]6CC[C@](C)(O)CC6)c([N+](=O)[O-])c5)c(Oc5cnc6[nH]ccc6c5)c3)C4)[C@H](c3ccccc3C(C)C)C2)cc2occc12	-0.54
CC(C)c1ccccc1[C@@H]1CN(Cc2ccc3c(c2)OCC3)CCN1C1CC2(C1)CN(c1ccc(C(=O)NS(=O)(=O)c3ccc(NC[C@H]4CC[C@](C)(O)CC4)c([N+](=O)[O-])c3)c(Oc3cnc4[nH]cc(F)c4c3)c1)C2	-0.89

I have 7 molecules here; please give me log10(IC50) for each one.
1. CC(C)c1ccccc1C1CN(Cc2ccc3c(c2)CCCC3)CCN1C1CC2(CCN(c3ccc(C(=O)NS(=O)(=O)c4ccc(NC[C@H]5CC[C@](C)(O)CC5)c([N+](=O)[O-])c4)c(Oc4cnc5[nH]ccc5c4)c3)CC2)C1 (stereo partly shown)
2. COc1cc(CN2CCN(C3CC4(CCN(c5ccc(C(=O)NS(=O)(=O)c6ccc(NC[C@H]7CC[C@](C)(O)CC7)c([N+](=O)[O-])c6)c(Oc6cnc7[nH]ccc7c6)c5)CC4)C3)[C@H](c3ccccc3C(C)C)C2)ccc1C(F)F
3. COC1C2CC3CCC(CN4CCN(C5CC6(C5)CN(c5ccc(C(=O)NS(=O)(=O)c7ccc(NC[C@H]8CC[C@](C)(O)CC8)c([N+](=O)[O-])c7)c(Oc7cnc8[nH]cc(F)c8c7)c5)C6)[C@H](c5ccccc5C(C)C)C4)(C2)CC31 (stereo partly shown)
4. COc1cc(CN2CCN(C3CC4(C3)CN(c3ccc(C(=O)NS(=O)(=O)c5ccc(NC[C@H]6CC[C@](C)(O)CC6)c([N+](=O)[O-])c5)c(Oc5cnc6[nH]cc(F)c6c5)c3)C4)[C@H](c3ccccc3C(C)C)C2)cc(C)c1OC
5. COc1ccc(CN2CCN(C3CC4(C3)CN(c3ccc(C(=O)NS(=O)(=O)c5ccc(NCC6CCOCC6)c([N+](=O)[O-])c5)c(Oc5cnc6[nH]cc(F)c6c5)c3)C4)[C@H](c3ccccc3C(C)C)C2)cc1
6. COc1cc(CN2CCN(C3CC4(CCN(c5ccc(C(=O)NS(=O)(=O)c6ccc(NC[C@H]7CC[C@](C)(O)CC7)c([N+](=O)[O-])c6)c(Oc6cnc7[nH]ccc7c6)c5)CC4)C3)C(c3ccccc3C(C)C)C2)cnc1OC (stereo partly shown)
7. COc1cc(CN2CCN(C3CC4(C3)CN(c3ccc(C(=O)NS(=O)(=O)c5ccc(NC[C@H]6CC[C@](C)(O)CC6)c([N+](=O)[O-])c5)c(Oc5cnc6[nH]ccc6c5)c3)C4)[C@H](c3ccccc3C(C)C)C2)cc2c1OCCC2

-0.12
-0.28
-0.51
-0.57
-1.02
-1.46
-1.25

Quick request: log10(IC50) for each listed item, please.
1. COc1ccc(CN2CCN(C3CC4(CCN(c5ccc(C(=O)NS(=O)(=O)c6ccc(NC[C@H]7CC[C@](C)(O)CC7)c([N+](=O)[O-])c6)c(Oc6cnc7[nH]ccc7c6)c5)CC4)C3)C(c3ccccc3CN3CCOCC3)C2)cc1 (stereo partly shown)
2. CC(C)c1ccccc1C1CN(CC23CC(C2)C3)CCN1C1CC2(CCN(c3ccc(C(=O)NS(=O)(=O)c4ccc(NC[C@H]5CC[C@](C)(O)CC5)c([N+](=O)[O-])c4)c(Oc4cnc5[nH]ccc5c4)c3)CC2)C1 (stereo partly shown)
3. CC(C)c1ccccc1[C@@H]1CN(Cc2ccnc3c2OCC(C)(C)O3)CCN1C1CC2(C1)CN(c1ccc(C(=O)NS(=O)(=O)c3ccc(NC[C@H]4CC[C@](C)(O)CC4)c([N+](=O)[O-])c3)c(Oc3cnc4[nH]cc(F)c4c3)c1)C2

1. -0.38
2. -1.10
3. -1.48
